From: the kinase profiling compilation of Christmann-Franck et al. (2016)

Molecular target: CDK5 CDK5R1 p35 (human) (UniProt Q00535+Q15078)
Test: radiometric filter-binding kinase assay, Kinase HotSpot
Conditions: compound 0.5 µM; ATP 10 µM
Assay Endpoint: residual activity

{"Smiles Structure": "CO[C@@H]1[C@H](N(C)C(=O)c2ccccc2)C[C@H]2O[C@]1(C)n1c3ccccc3c3c4c(c5c6ccccc6n2c5c31)C(=O)NC4", "Assay Endpoint": "residual activity", "Measured Result": "74.1%"}
{"Smiles Structure": "N#C/C(=C\\c1ccc(O)c(O)c1)C(=O)NCc1ccccc1", "Assay Endpoint": "residual activity", "Measured Result": "99.8%"}
{"Smiles Structure": "N#Cc1c[nH]c2c[nH]/c(=N\\Cc3cccnc3)cc2/c1=N\\c1ccc(F)c(Cl)c1", "Assay Endpoint": "residual activity", "Measured Result": "80.4%"}
{"Smiles Structure": "O=C(c1cc2cc(O)ccc2[nH]1)c1cc2cc(O)ccc2[nH]1", "Assay Endpoint": "residual activity", "Measured Result": "57.3%"}
{"Smiles Structure": "CC(C)(C)c1cc(C=C(C#N)C#N)cc(Br)c1O", "Assay Endpoint": "residual activity", "Measured Result": "102%"}
{"Smiles Structure": "Cn1c2ccccc2c2c3c(c4c5ccccc5n(CCC#N)c4c21)CNC3=O", "Assay Endpoint": "residual activity", "Measured Result": "8.52%"}
